Target: T1, human IL-1α (human, UniProt P01583 113-271)
T1 construct: also called IL-1alpha; hIL-1α
T1 sequence (looked up): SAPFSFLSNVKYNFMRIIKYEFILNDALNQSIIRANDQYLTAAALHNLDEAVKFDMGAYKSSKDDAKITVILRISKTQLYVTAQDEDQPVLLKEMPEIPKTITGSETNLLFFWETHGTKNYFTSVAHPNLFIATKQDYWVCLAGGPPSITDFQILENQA
Assay: Table 62 IC50; RBA presumed
parameter-measured: pIC50
Worth noting: pIC50 values are minus log10 of concentrations stated in mol/L.

ABT1-6-3 (other, VH dAb) VH: EVQLLESGGGLVQPGGSLRLSCAASGFTFGAYDMQWVRQAPGKGLEWVSSIYKSGALTSYADSVKGRFTISRDNSKNTLYLQMNSLRAEDTAVYYCAKGWASFDYWGQGTLVTVSS = 7.10
ABT1-95-160 (other, VK dAb) VL: DIQMTQSPSSLSASVGDRVTITCRASQPIVRNLRWYQQKPGKAPKLLIYSSSYLEPGVPSRFSGSGSGTDFTLTISSLQPEDFATYHCQQGYVWPVTFGQGTKVEIKR = 10.00
ABT1-137 (other, VH dAb) VH: EVQLLESGGGLVQPGGSLRLSCAASGFTFERYWMAWVRQAPGKGLEWVSNINLTGSATYYADSVKGRFTISRDNSKNTLYLQMNSLRAEDTAVYYCAKGAFQFDYWGQGTLVTVSS = 6.70
ABT1-95-144 (other, VK dAb) VL: DIQMTQSPSSLSASVGDRVTITCRASQPIVRNLRWYQQKPGKAPKLLIYSSSYLSPGVPSRFSGSGSGTDFTLTISSLQPEDFATYHCQQGYRWPVTFGQGTKVEIKR = 9.30
ABT1-95-112 (other, VK dAb) VL: DIQMTQSPSSLSASVGDRVTITCRASQPIVRNLRWYQQKPGKAPKLLIYSSSYLENGVPSRFSGSGSGTDFTLTISSLQPEDFATYHCQQGYRWPVTFGQGTKVEIKR = 10.00

[in] Look up pIC50: ABT1-141-14 (other, VK dAb) VL: DIQMTQSPSSLSASVGDRVTITCRASQWIQKQLAWYQQKPGKAPRLLIYSSSYLQSGVPSRFSGSGSGTDFTLTISSLQPEDFATYYCQQNLSVPFTFGQGTKVEIKR
[out] 8.00
